target: KRAS G12C (GMPPNP-loaded) and cRAF (Ras-binding domain) interaction (Homo sapiens (Human), UniProt P01116, C118S/C51S/C80L/G12C); assay: Inhibition of KRAS G12C and cRAF binding (AlphaScreen); details: KRAS G12C loaded with GMPPNP, cRaf RBD, 2 hours preincubation; read-out: Raf-1 RBD K-Ras IC50
Sequence (P01116 other isoform, or with tags, fused parts or gaps G12C/C51S/C80L/C118S): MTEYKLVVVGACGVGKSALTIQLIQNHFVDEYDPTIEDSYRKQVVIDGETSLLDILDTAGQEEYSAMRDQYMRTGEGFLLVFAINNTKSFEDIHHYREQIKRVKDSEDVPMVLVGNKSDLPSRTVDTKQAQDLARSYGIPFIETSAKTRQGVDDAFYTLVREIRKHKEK
pIC50: −log10 of the molar value.
# pIC50 values compiled below
quantity.measured: pIC50

[[record]]
compound = "N#CC[C@H]1CN(c2nc(OC[C@@]34CCCN3C[C@H](F)C4)nc3c(F)c(-c4cccc5cccc(F)c45)ncc23)CCN1C(=O)/C=C/CN1C[C@@H]2C[C@H]1CO2 [Compound 219]"
observed_measurement = "> 8.00"

[[record]]
compound = "N#CC[C@H]1CN(c2nc(OC[C@@]34CCCN3C[C@H](F)C4)nc3c(F)c(-c4cccc(Cl)c4C4CC4)ncc23)CCN1C(=O)/C=C/CN1C2COCC1C2 [Compound 278]"
observed_measurement = "> 8.00"

[[record]]
compound = "N#CC[C@H]1CN(c2nc(OCC34CCCN3CCC4)nc3c(F)c(-c4cccc5cccc(Cl)c45)ncc23)CCN1C(=O)/C=C/c1nc(C(F)F)no1 [Compound 27]"
observed_measurement = "> 8.00"

[[record]]
compound = "N#CC[C@H]1CN(c2nc(OCC34CCCN3CCC4)nc3c2CCN(c2cccc4cccc(Cl)c24)C3)CCN1C(=O)/C=C/CN1C[C@H]2COC[C@H]2C1 [Compound 195]"
observed_measurement = "7.00 to 8.00"

[[record]]
compound = "CC(=O)N1CCN(C/C=C/C(=O)N2CCN(c3nc(OC[C@@]45CCCN4C[C@H](F)C5)nc4c(F)c(-c5cccc6cccc(Cl)c56)ncc34)C[C@@H]2CC#N)CC1 [Compound 324]"
observed_measurement = "> 8.00"


----------
Assay: Determination of kinetic solubility (pH 7.4)
Format: physicochemical
Details: phosphate buffer, pH 7.4, aqueous buffer, kinetic from dmso stock, 50 mM phosphate buffer pH 7.4, read-out: Ksol, pH 7.4
Method: 490 μL of a 50 mM phosphate buffer (pH 7.4) was added to the sample solution. The mixture was vortexed for at least 2 minutes. The vial was shaken on a Barnstead shaker at 800 rpm at room temperature for 2 hours. The vial was centrifuged at 4000 rpm for 20 minutes. The Mini-UniPrep vial was compressed to prepare a filtrate, which was injected into an HPLC-UV and LC-MS/MS system. Kinetic solubility was calculated by referencing sample peak areas to a standard calibration curve.
quantity.measured: solubility kinetic at 2 h (µg/mL)

[[record]]
smiles_data = "N#CC[C@H]1CN(c2nc(OC[C@@]34CCCN3C[C@H](F)C4)nc3c(F)c(-c4cccc5ccc(F)c(Cl)c45)ncc23)CCN1C(=O)/C=C/CN1C[C@H]2C[C@@H]1CO2"
quantity_measured = "solubility kinetic at 2 h"
observed_measurement = 143

[[record]]
smiles_data = "N#CC[C@H]1CN(c2nc(OC[C@@]34CCCN3C[C@H](F)C4)nc3c(F)c(-c4cccc(Cl)c4C(F)(F)F)ncc23)CCN1C(=O)/C=C/CN1CC[C@H](F)C1"
quantity_measured = "solubility kinetic at 2 h"
observed_measurement = 123

[[record]]
smiles_data = "N#CC[C@H]1CN(c2nc(OCC34CCCN3CCC4)nc3c2CCN(c2cccc4cccc(Cl)c24)C3)CCN1C(=O)/C=C/CN1[C@@H]2CC[C@H]1COC2"
quantity_measured = "solubility kinetic at 2 h"
observed_measurement = 104

